# Target or test system: human GPR84 receptor (Homo sapiens, UniProt Q9NQS5)
# Construct: host or cells: HEK293, transient transfection
# Sequence (Q9NQS5 whole entry): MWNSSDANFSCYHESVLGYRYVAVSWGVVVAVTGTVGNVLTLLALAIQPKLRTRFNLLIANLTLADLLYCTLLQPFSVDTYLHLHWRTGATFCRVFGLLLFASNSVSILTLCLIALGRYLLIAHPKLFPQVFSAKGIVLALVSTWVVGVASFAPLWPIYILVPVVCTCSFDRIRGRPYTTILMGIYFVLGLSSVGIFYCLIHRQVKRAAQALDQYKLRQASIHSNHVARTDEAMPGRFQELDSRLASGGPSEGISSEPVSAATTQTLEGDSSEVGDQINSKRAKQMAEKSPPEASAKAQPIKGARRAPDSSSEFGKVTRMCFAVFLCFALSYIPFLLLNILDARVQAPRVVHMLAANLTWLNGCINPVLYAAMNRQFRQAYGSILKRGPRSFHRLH
# Assay method text: Gαi biosensor BRET assay in HEK293 cells (antagonism of ZQ-16)
# Format: cell-based
# Measurement conditions: HEK293 cells, antagonism of 200 nmol/L ZQ-16
Observation type: IC50

Below, each entry is followed by its recorded IC50 result.
>  <Molecule>
Clc1cc(C#CC2CC2)ccc1-c1cn(CC2CCCCO2)nn1 (stereo not drawn)

>  <Observation type>
IC50

>  <Observed measurement>
> 3000 nM

$$$$
>  <Molecule>
CC(C)Oc1cc(N2CC(C)(CO)C2)ccc1-c1cn(CC2OCC(C)(C)CO2)nn1

>  <Observation type>
IC50

>  <Observed measurement>
300 to 1000 nM

$$$$

Moving on to another molecule below.
### Prompt Query IC50 for "CCc1cc(N2CC(C)(C)C2)ccc1-c1cn(CC2Oc3ccccc3O2)nn1"
### Response 300 to 1000 nM

Entry source: patent US12617777B2
